- System: recombinant mouse LPLA2 (PLA2G15) (Mus musculus)
- Construct: purchased Proteos Inc. (Kalamazoo, MI)
- Protocol Details: Transacylase activity of LPLA2 (1-O-acyl-N-acetylsphingosine synthase, cell-free liposome assay)
- Format: biochemical
- Condition: 1-O-acyl N-acetylsphingosine synthase activity, pH 4.5, DOPC/sulfatide liposomes; read-out: LPLA2 IC50
This listing pairs compounds with measured pIC50.
On this scale, pIC50 is minus log10 of a concentration expressed in M (mol/L).

A selection of reference data follows.
Recorded pIC50 for CCN(CC)CCCC(C)Nc1ccnc2cc(Cl)ccc12 (stereo not drawn) [Chloroquine] , please? 3.18

Recorded pIC50 for CC#C[C@]1(O)CC[C@H]2[C@@H]3CCC4=CC(=O)CCC4=C3[C@@H](c3ccc(N(C)C)cc3)C[C@@]21C [Mifepristone] , please? 4.56

Recorded pIC50 for CC(Cc1cccc(C(F)(F)F)c1)NCCOC(=O)c1ccccc1 (stereo not drawn) [Benfluorex] , please? 4.70

Recorded pIC50 for COC(=O)C1=C(C)NC(C)=C(C(=O)OC(C)(C)CN(C)CCC(c2ccccc2)c2ccccc2)C1c1cccc([N+](=O)[O-])c1 (stereo not drawn) [Lercanidipine] , please? 4.43

Recorded pIC50 for OC1(c2ccc(Cl)c(C(F)(F)F)c2)CCN(CCCC(c2ccc(F)cc2)c2ccc(F)cc2)CC1 [Penfluridol] , please? 5.04

More entries:
Recorded pIC50 for OC[C@@H](O)[C@@H](O)[C@H](O)[C@H](O)CO [Mannitol, (2R,3R,4R,5R)-hexane-1,2,3,4,5,6-hexol] , please? 3.80

Recorded pIC50 for Fc1ccc([C@@H]2CCNC[C@H]2COc2ccc3c(c2)OCO3)cc1 [Paroxetine] , please? 5.29

Recorded pIC50 for Nc1c(Br)cc(Br)cc1CN[C@H]1CC[C@H](O)CC1 [Ambroxol] , please? 4.23

Recorded pIC50 for CN(C)CC/C=C1/c2ccccc2Sc2ccc(Cl)cc21 [Chlorprothixene] , please? 5.11

Recorded pIC50 for CC(C)C[C@H]1C(=O)N2CCC[C@H]2[C@]2(O)O[C@](NC(=O)[C@@H]3C=C4c5cccc6[nH]c(Br)c(c56)C[C@H]4N(C)C3)(C(C)C)C(=O)N12 [Bromocriptine] , please? 3.90

Recorded pIC50 for C[C@]12C=CC(=O)N[C@@H]1CC[C@@H]1[C@@H]2CC[C@]2(C)[C@@H](C(=O)Nc3cc(C(F)(F)F)ccc3C(F)(F)F)CC[C@@H]12 [Dutasteride] , please? 2.98

Recorded pIC50 for COc1cc(C(=O)NS(=O)(=O)c2ccccc2C)ccc1Cc1cn(C)c2ccc(NC(=O)OC3CCCC3)cc12 [Zafirlukast] , please? 5.51

----------
- System: recombinant mouse LPLA2 (PLA2G15) (Mus musculus)
- Construct: purchased Proteos Inc. (Kalamazoo, MI)
- Sequence (Q8VEB4 34-412): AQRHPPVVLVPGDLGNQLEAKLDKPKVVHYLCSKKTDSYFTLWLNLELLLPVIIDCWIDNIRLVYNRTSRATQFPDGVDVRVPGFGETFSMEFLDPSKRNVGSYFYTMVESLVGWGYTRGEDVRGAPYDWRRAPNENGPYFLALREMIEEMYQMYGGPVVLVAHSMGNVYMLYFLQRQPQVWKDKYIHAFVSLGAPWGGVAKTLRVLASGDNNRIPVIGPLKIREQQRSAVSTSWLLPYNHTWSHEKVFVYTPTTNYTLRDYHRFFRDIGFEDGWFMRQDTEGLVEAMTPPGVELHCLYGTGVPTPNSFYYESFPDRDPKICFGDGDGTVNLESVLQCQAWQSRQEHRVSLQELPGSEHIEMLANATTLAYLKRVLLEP
- Protocol Details: Transacylase activity of LPLA2 (1-O-acyl-N-acetylsphingosine synthase, cell-free liposome assay)
- Assay type: biochemical
- Condition: LPLA2 dependent 1-O-acyl N-acetylsphingosine synthase activity; read-out: LPLA2 IC50
Value Kind: pIC50
On this scale, pIC50 is minus log10 of a concentration expressed in M (mol/L).

A selection of reference data follows.
Recorded pIC50 for O=C(O)Cc1ccccc1Nc1c(Cl)cccc1Cl , please? 5.14

Recorded pIC50 for CC(=O)O[C@H]1C[C@@]2(C)[C@@H](C[C@@H](O)[C@H]3[C@@]4(C)CC[C@@H](O)[C@@H](C)[C@@H]4CC[C@@]32C)/C1=C(\CCC=C(C)C)C(=O)O , please? 3.64

Recorded pIC50 for O=C1NC(=O)C(c2ccccc2)(c2ccccc2)N1 , please? 4.22

Recorded pIC50 for COc1ccc2[nH]cc(CCNC(C)=O)c2c1 , please? 4.42

Recorded pIC50 for Cc1cc(C(C)(C)C)cc(C)c1CC1=NCCN1 , please? 4.35

More entries:
Recorded pIC50 for CN1CCN(CCCN2c3ccccc3Sc3ccc(C(F)(F)F)cc32)CC1 , please? 5.16

Recorded pIC50 for COc1ccc(C2CNC(=O)C2)cc1OC1CCCC1 (stereo not drawn) , please? 3.52

----------
- System: recombinant mouse LPLA2 (PLA2G15) (Mus musculus, UniProt Q8VEB4)
- Construct: purchased Proteos Inc. (Kalamazoo, MI)
- Sequence (Q8VEB4 34-412): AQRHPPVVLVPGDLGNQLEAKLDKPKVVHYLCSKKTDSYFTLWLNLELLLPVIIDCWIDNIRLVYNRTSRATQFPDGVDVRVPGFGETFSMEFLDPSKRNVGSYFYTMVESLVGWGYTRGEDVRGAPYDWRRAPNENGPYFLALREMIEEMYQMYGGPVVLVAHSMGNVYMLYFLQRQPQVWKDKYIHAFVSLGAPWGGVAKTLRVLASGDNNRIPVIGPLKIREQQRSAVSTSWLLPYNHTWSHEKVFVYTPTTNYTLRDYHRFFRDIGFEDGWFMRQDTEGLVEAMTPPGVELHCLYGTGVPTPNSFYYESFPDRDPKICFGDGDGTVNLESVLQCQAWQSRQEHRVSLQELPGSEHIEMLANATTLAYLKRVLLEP
- Protocol Details: Transacylase activity of LPLA2 (1-O-acyl-N-acetylsphingosine synthase, cell-free liposome assay)
- Format: biochemical
- Condition: 1-O-acyl N-acetylsphingosine synthase activity, pH 4.5, DOPC/sulfatide liposomes; read-out: LPLA2 IC50
Value Kind: log10(IC50) (log10 of the value in µM)
Note: values are log10 of IC50 expressed in µM.

A selection of reference data follows.
Recorded log10(IC50) for O=C(NC1CCN(CCc2c[nH]c3ccccc23)CC1)c1ccccc1 , please? 2.09

Recorded log10(IC50) for CC[C@]1(O)C[C@@H]2CN(CCc3c([nH]c4ccccc34)[C@@](C(=O)OC)(c3cc4c(cc3OC)N(C)[C@H]3[C@@](O)(C(=O)OC)[C@H](OC(C)=O)[C@]5(CC)C=CCN6CC[C@]43[C@@H]65)C2)C1 , please? 3.33

Recorded log10(IC50) for CN(C)CCOC(=O)C(c1ccccc1)C1(O)CCCC1 (centres unmarked) [Cyclopentolate] , please? 1.51

More entries:
Recorded log10(IC50) for O=C(O)[C@@H]1C[C@@H](C2CCCCC2)CN1C(=O)CP(=O)(O)CCCCc1ccccc1 , please? 0.76

Recorded log10(IC50) for COc1ccc(C(=O)Nc2ccccc2CCC2CCCCN2C)cc1 (centres unmarked) [Encainide] , please? 1.88

Recorded log10(IC50) for Clc1ccc(C(OCCN2CCCCC2)c2ccccc2)cc1 (centres unmarked) , please? 1.61

Recorded log10(IC50) for CCOC(=O)c1cncn1[C@H](C)c1ccccc1 [Etomidate] , please? 3.06

Recorded log10(IC50) for CCOC(=O)N1CCC(=C2c3ccc(Cl)cc3CCc3cccnc32)CC1 , please? 0.95

----------
- System: LPLA2 (Mus musculus)
- Construct: purchased Proteos Inc. (Kalamazoo, MI)
- Protocol Details: LPLA2 thermal stability measurement (SYPRO Orange Tm)
- Type: binding
- Condition: N=3 ± SD
Value Kind: (ΔTm)c-(ΔTm)d, difference in melting temperature of LPLA2 alone or in the presence of drug (°C)
Supply the numeric figure in °C, leaving out any unit text.

A selection of reference data follows.
Recorded (ΔTm)c-(ΔTm)d, difference in melting temperature of LPLA2 alone or in the presence of drug for CCN(CC)CCOC(=O)C(c1ccccc1)C1CCCCC1 (centres unmarked) [Drofenine, hexahydroadiphenine] , please? 1.50

Recorded (ΔTm)c-(ΔTm)d, difference in melting temperature of LPLA2 alone or in the presence of drug for CN1CCN2c3ncccc3Cc3ccccc3C2C1 (centres unmarked) [Mirtazapine] , please? -1.30

Recorded (ΔTm)c-(ΔTm)d, difference in melting temperature of LPLA2 alone or in the presence of drug for CN1CCC(=C2c3ccccc3CC(=O)c3sccc32)CC1 [Ketotifen] , please? 0.10

More entries:
Recorded (ΔTm)c-(ΔTm)d, difference in melting temperature of LPLA2 alone or in the presence of drug for C=C[C@H]1C[N@@]2CC[C@H]1C[C@H]2[C@H](O)c1ccnc2ccc(OC)cc12 [Quinine] , please? -1.00

Recorded (ΔTm)c-(ΔTm)d, difference in melting temperature of LPLA2 alone or in the presence of drug for CC[C@H]1OC(=O)[C@H](C)[C@@H](O[C@H]2C[C@@](C)(OC)[C@@H](O)[C@H](C)O2)[C@H](C)[C@@H](O[C@@H]2O[C@H](C)C[C@H](N(C)C)[C@H]2O)[C@](C)(O)C[C@@H](C)C(=O)[C@H](C)[C@@H](O)[C@]1(C)O [Erythromycin] , please? -0.48

Recorded (ΔTm)c-(ΔTm)d, difference in melting temperature of LPLA2 alone or in the presence of drug for OC(CCN1CCCCC1)(c1ccccc1)c1ccccc1 [Pridinol] , please? 0

Recorded (ΔTm)c-(ΔTm)d, difference in melting temperature of LPLA2 alone or in the presence of drug for CC(C)(C)NCC(O)c1cc(Cl)c(N)c(Cl)c1.Cl (centres unmarked) [Clenbuterol] , please? 1.20

Recorded (ΔTm)c-(ΔTm)d, difference in melting temperature of LPLA2 alone or in the presence of drug for CN(C)CCCN1c2ccccc2Sc2ccccc21 [Promazine] , please? -0.10

Recorded (ΔTm)c-(ΔTm)d, difference in melting temperature of LPLA2 alone or in the presence of drug for CC(C)(C)c1ccc(CN2CCN(C(c3ccccc3)c3ccc(Cl)cc3)CC2)cc1 (centres unmarked) [Buclizine] , please? 0.63

Recorded (ΔTm)c-(ΔTm)d, difference in melting temperature of LPLA2 alone or in the presence of drug for CC(=O)[C@H]1CC[C@H]2[C@@H]3CCC4=CC(=O)CC[C@]4(C)[C@H]3CC[C@]12C [Progesterone] , please? 0.61

Recorded (ΔTm)c-(ΔTm)d, difference in melting temperature of LPLA2 alone or in the presence of drug for CC(C)N=c1cc2n(-c3ccc(Cl)cc3)c3ccccc3nc-2cc1Nc1ccc(Cl)cc1 [Clofazimine] , please? -0.97

Recorded (ΔTm)c-(ΔTm)d, difference in melting temperature of LPLA2 alone or in the presence of drug for CN(C)CCC=C1c2ccccc2CCc2ccccc21 [Amitriptyline] , please? -0.5

Recorded (ΔTm)c-(ΔTm)d, difference in melting temperature of LPLA2 alone or in the presence of drug for COc1ccc2c(c1)[nH]c1c(C)nccc12 [Harmine] , please? -1.94

Recorded (ΔTm)c-(ΔTm)d, difference in melting temperature of LPLA2 alone or in the presence of drug for C=CCc1ccccc1OCC(O)CNC(C)C (centres unmarked) [Alprenolol] , please? -1.00

Recorded (ΔTm)c-(ΔTm)d, difference in melting temperature of LPLA2 alone or in the presence of drug for CN(C)CCCC1(c2ccc(F)cc2)OCc2cc(C#N)ccc21 (centres unmarked) [Citalopram] , please? 0
